// values below are reported mean geometric MIC, Vancomycin Sensitive Strains
# Tested on: vancomycin-susceptible enterococci
# METHOD DESCRIPTION: broth micro-dilution, mean geometric MIC
# Type: cell-based, Enterococcus faecium and Enterococcus faecalis
# STATED CONDITIONS: enterococci, 24-hour incubation
METRIC NAME: mean geometric MIC, Vancomycin Sensitive Strains (µg/mL)

# MOLECULE, MEAS VALUE
data = [
    ("CC(C)CC(C(=O)NC1C(=O)NC(CC(N)=O)C(=O)NC2C(=O)NC3C(=O)NC(C(=O)NC(C(=O)O)c4cc(O)cc(O)c4-c4cc3ccc4O)C(OC3CC(C)(N)C(O)C(C)O3)c3ccc(c(Cl)c3)Oc3cc2cc(c3OC2OC(CO)C(O)C(O)C2OC2CC(C)(NCc3ccc(N(C)c4ccccc4)cc3)C(O)C(C)O2)Oc2ccc(cc2Cl)C1O)N(C)Cc1ccc(N(C)c2ccccc2)cc1 (stereo not drawn)", 1.1),
    ("CC(C)CC(C(=O)NC1C(=O)NC(CC(N)=O)C(=O)NC2C(=O)NC3C(=O)NC(C(=O)NC(C(=O)O)c4cc(O)cc(O)c4-c4cc3ccc4O)C(OC3CC(C)(N)C(O)C(C)O3)c3ccc(c(Cl)c3)Oc3cc2cc(c3OC2OC(CO)C(O)C(O)C2OC2CC(C)(NCc3ccccn3)C(O)C(C)O2)Oc2ccc(cc2Cl)C1O)N(C)Cc1ccccn1 (stereo not drawn)", 37),
    ("CNC(CC(C)C)C(=O)NC1C(=O)NC(CC(N)=O)C(=O)NC2C(=O)NC3C(=O)NC(C(=O)NC(C(=O)O)c4cc(O)cc(O)c4-c4cc3ccc4O)C(OC3CC(C)(N)C(O)C(C)O3)c3ccc(c(Cl)c3)Oc3cc2cc(c3OC2OC(CO)C(O)C(O)C2OC2CC(C)(NCc3cccc(OCC4CCCCC4)c3)C(O)C(C)O2)Oc2ccc(cc2Cl)C1O (stereo not drawn)", 0.041),
    ("COc1ccc2nc(-c3ccccc3)cc(CNC3(C)CC(OC4C(Oc5c6cc7cc5Oc5ccc(cc5Cl)C(OC5CC(C)(N)C(O)C(C)O5)C5NC(=O)C(NC(=O)C7NC(=O)C(CC(N)=O)NC(=O)C(NC(=O)C(CC(C)C)N(C)Cc7cc(-c8ccccc8)nc8ccc(OC)cc78)C(O)c7ccc(c(Cl)c7)O6)c6ccc(O)c(c6)-c6c(O)cc(O)cc6C(C(=O)O)NC5=O)OC(CO)C(O)C4O)OC(C)C3O)c2c1 (stereo not drawn)", 1.1),
    ("CNC(CC(C)C)C(=O)NC1C(=O)NC(CC(N)=O)C(=O)NC2C(=O)NC3C(=O)NC(C(=O)NC(C(=O)O)c4cc(O)cc(O)c4-c4cc3ccc4O)C(OC3CC(C)(N)C(O)C(C)O3)c3ccc(c(Cl)c3)Oc3cc2cc(c3OC2OC(CO)C(O)C(O)C2OC2CC(C)(NCc3sccc3-c3cccs3)C(O)C(C)O2)Oc2ccc(cc2Cl)C1O (stereo not drawn)", 0.14),
    ("CNC(CC(C)C)C(=O)NC1C(=O)NC(CC(N)=O)C(=O)NC2C(=O)NC3C(=O)NC(C(=O)NC(C(=O)O)c4cc(O)cc(O)c4-c4cc3ccc4O)C(OC3CC(C)(N)C(O)C(C)O3)c3ccc(c(Cl)c3)Oc3cc2cc(c3OC2OC(CO)C(O)C(O)C2OC2CC(C)(NCc3ccc(N=Nc4ccccc4)cc3)C(O)C(C)O2)Oc2ccc(cc2Cl)C1O (stereo not drawn)", 0.041),
    ("CNC(CC(C)C)C(=O)NC1C(=O)NC(CC(N)=O)C(=O)NC2C(=O)NC3C(=O)NC(C(=O)NC(C(=O)O)c4cc(O)cc(O)c4-c4cc3ccc4O)C(OC3CC(C)(N)C(O)C(C)O3)c3ccc(c(Cl)c3)Oc3cc2cc(c3OC2OC(CO)C(O)C(O)C2OC2CC(C)(NCCCCCCCCOc3ccc(OC)cc3)C(O)C(C)O2)Oc2ccc(cc2Cl)C1O (stereo not drawn)", 0.041),
    ("CNC(CC(C)C)C(=O)NC1C(=O)NC(CC(N)=O)C(=O)NC2C(=O)NC3C(=O)NC(C(=O)NC(C(=O)O)c4cc(O)cc(O)c4-c4cc3ccc4O)C(OC3CC(C)(N)C(O)C(C)O3)c3ccc(c(Cl)c3)Oc3cc2cc(c3OC2OC(CO)C(O)C(O)C2OC2CC(C)(NCc3ccc(-c4ccccc4[N+](=O)[O-])cc3)C(O)C(C)O2)Oc2ccc(cc2Cl)C1O (stereo not drawn)", 0.13),
    ("CNC(CC(C)C)C(=O)NC1C(=O)NC(CC(N)=O)C(=O)NC2C(=O)NC3C(=O)NC(C(=O)NC(C(=O)O)c4cc(O)cc(O)c4-c4cc3ccc4O)C(O)c3ccc(c(Cl)c3)Oc3cc2cc(c3OC2OC(CO)C(O)C(O)C2OC2CC(C)(NCc3cccc4ccccc34)C(O)C(C)O2)Oc2ccc(cc2Cl)C1O (stereo not drawn)", 0.71),
    ("CNC(CC(C)C)C(=O)NC1C(=O)NC(CC(N)=O)C(=O)NC2C(=O)NC3C(=O)NC(C(=O)NC(C(=O)O)c4cc(O)cc(O)c4-c4cc3ccc4O)C(OC3CC(C)(N)C(O)C(C)O3)c3ccc(c(Cl)c3)Oc3cc2cc(c3OC2OC(CO)C(O)C(O)C2OC2CC(C)(NCc3ccc(OC)c4ccccc34)C(O)C(C)O2)Oc2ccc(cc2Cl)C1O (stereo not drawn)", 0.14),
    ("CNC(CC(C)C)C(=O)NC1C(=O)NC(CC(N)=O)C(=O)NC2C(=O)NC3C(=O)NC(C(=O)NC(C(=O)O)c4cc(O)cc(O)c4-c4cc3ccc4O)C(OC3CC(C)(N)C(O)C(C)O3)c3ccc(c(Cl)c3)Oc3cc2cc(c3OC2OC(CO)C(O)C(O)C2OC2CC(C)(NCc3c(O)ccc4ccccc34)C(O)C(C)O2)Oc2ccc(cc2Cl)C1O (stereo not drawn)", 0.50),
    ("CNC(CC(C)C)C(=O)NC1C(=O)NC(CC(N)=O)C(=O)NC2C(=O)NC3C(=O)NC(C(=O)NC(C(=O)O)c4cc(O)cc(O)c4-c4cc3ccc4O)C(OC3CC(C)(N)C(O)C(C)O3)c3ccc(c(Cl)c3)Oc3cc2cc(c3OC2OC(CO)C(O)C(O)C2OC2CC(C)(NCc3cccc(OC4CCCCC4)c3)C(O)C(C)O2)Oc2ccc(cc2Cl)C1O (stereo not drawn)", 0.083),
]
